Below, each entry is listed alongside its reported log10(GI50).
- Test system: SK-OV-3
- Assay Remarks: NCI tumour cell line growth inhibition, 48 h
Hit rate of the full screen: of about 56,000 sequences, about 2,900 (5.2%) were called active. Not all results are given here. Results with a measured potency or affinity are listed apart.
Attribute Measured: log10(GI50) (log10 of the value in µM)

INSERT INTO measurements (substance, value_measured) VALUES
  ('cis-Bis[[(trimethylsilyl)methyl]amino]tetrachloroplatinum(IV), CHEMBL2146191', 1.25),
  ('[Bis(aminomethyl)tetramethylenesilane]tetrachloropaltinum(IV), CHEMBL2146189', 0.84),
  ('CISPLATIN, CHEMBL11359', 0.73),
  ('[Bis(aminomethyl)diethylsilane]tetrachloroplatinum(IV), CHEMBL2146203', 0.23),
  ('[Bis(aminomethyl)tetramethylenesilane]dichloropaltinum(II), CHEMBL2146205', 1.42),
  ('[Bis(aminomethyl)dimethylsilane]tetrachloroplatinum(IV), CHEMBL2146190', 1.11),
  ('[Bis(aminomethyl)ethylmethylsilane]tetrachloroplatinum(IV), CHEMBL2146192', 1.12),
  ('[Bis(aminomethyl)pentamethylenesilane]dichloropaltinum(II), CHEMBL2146202', 0.71);
